System: BT-549 breast
Assay remarks: NCI tumour cell line growth inhibition, 48 h
Measured parameter: TGI (µM)
The response must be a number in µM with no trailing unit.

Guide cases for TGI, answers given:
molecule="COC(=O)[C@@H](OC)[C@@H]1Cc2cc3cc(OC4CC(OC5CC(O)C(O)C(C)O5)C(O)C(C)O4)c(C)c(O)c3c(O)c2C(=O)[C@H]1OC1CC(OC2CC(OC3CC(C)(O)C(O)C(C)O3)C(O)C(C)O2)C(O)C(C)O1 (some centres undefined)" subject_of_test="BT-549 breast" val=0.0974
molecule=CNCCCn1c2c(c3ccc(F)cc3c1=O)C(=O)c1cc(OC)cnc1-2 subject_of_test="BT-549 breast" val=4.84
molecule=Cc1c(-c2ccc(O)c(O)c2)oc(=O)c2c(O)cccc12 subject_of_test="BT-549 breast" val=44.6
molecule=CN(C)/C=C/c1c2c(nc3ccccc13)C(=O)c1ccccc1C2=O subject_of_test="BT-549 breast" val=4.87
molecule="COc1cc2cc(C(=O)N3CC(CCl)c4c3cc(O)c3ccccc43)[nH]c2c(OC)c1OC (centres undefined)" subject_of_test="BT-549 breast" val=9.94
molecule=Clc1ccc(N2CCC(N3CCCC3)CC2)cc1-c1nc2ccccc2[nH]1 subject_of_test="BT-549 breast" val=31.2

Let us move to another entry and its TGI.
Prompt: Tell me the measured TGI of `Nc1cc2nc3ccccc3oc-2cc1=O` , please.
Completion: 3.53

Values were extracted from PubChem BioAssay (NCI).
